system: OVCAR-5 complex spheroids with HUVEC/MSC, viability, % test/control; assay: Anticancer human tumor OVCAR-5 cell line growth inhibition [AhR]; settings: second compound 0.316 µM; first compound 0.0316 µM; active compounds read low;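 note: spheroids exposed to compounds for 7 days; 100% = DMSO vehicle control wells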
parameter: viability, T/C (%)
Give the value, in units of %, as a plain number.

{"compound": "CC1COCCN1c1cc(-c2ccnn2C)c2ccnc(-c3ccn[nH]3)c2n1 (stereo not given) + CC(CO)NC(=O)c1cc(-c2ccc(Cl)cc2)nn(-c2cnn(C)c2)c1=O", "viability, T/C (%)": 109}

Lab book: viability, T/C of CC1(C)CCC(CN2CCN(c3ccc(C(=O)NS(=O)(=O)c4ccc(NCC5CCOCC5)c([N+](=O)[O-])c4)c(Oc4cnc5[nH]ccc5c4)c3)CC2)=C(c2ccc(Cl)cc2)C1 + Cc1ccccc1N=Nc1ccc(NC(=O)c2ccnn2C)c(C)c1 noted as 102
